systemName: human TRPV1 (Homo sapiens)
Sequence (Q8NER1 whole entry): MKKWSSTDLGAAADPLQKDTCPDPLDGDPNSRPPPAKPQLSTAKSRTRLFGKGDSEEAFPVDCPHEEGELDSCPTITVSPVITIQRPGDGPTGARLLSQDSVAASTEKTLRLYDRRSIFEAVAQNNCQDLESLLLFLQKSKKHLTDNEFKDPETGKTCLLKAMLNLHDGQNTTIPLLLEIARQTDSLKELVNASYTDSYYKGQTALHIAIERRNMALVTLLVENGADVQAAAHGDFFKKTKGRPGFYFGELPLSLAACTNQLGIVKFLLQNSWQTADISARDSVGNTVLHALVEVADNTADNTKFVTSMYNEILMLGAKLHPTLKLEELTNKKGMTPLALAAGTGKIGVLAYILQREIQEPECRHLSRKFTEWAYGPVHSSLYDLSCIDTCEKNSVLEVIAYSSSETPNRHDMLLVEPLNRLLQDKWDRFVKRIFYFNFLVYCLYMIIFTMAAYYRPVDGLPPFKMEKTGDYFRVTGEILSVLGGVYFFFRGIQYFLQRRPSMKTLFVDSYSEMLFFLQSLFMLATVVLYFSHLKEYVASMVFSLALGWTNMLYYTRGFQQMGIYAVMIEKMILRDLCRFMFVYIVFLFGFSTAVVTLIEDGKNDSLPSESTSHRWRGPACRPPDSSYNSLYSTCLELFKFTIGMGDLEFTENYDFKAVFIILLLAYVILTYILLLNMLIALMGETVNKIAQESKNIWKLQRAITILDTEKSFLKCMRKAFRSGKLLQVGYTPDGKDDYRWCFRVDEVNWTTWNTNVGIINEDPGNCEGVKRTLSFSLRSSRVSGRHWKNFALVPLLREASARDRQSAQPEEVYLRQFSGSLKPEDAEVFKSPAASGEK
assayName: cell-based
pEC50: −log10 of the molar value.

molecule	systemName	signQualifier	pEC50
COc1cc(CNC(=O)c2cc3ccccc3n2C)ccc1O [6g]	human TRPV1 (Homo sapiens)	=	7.44
COc1cc(CNC(=O)c2cc3ccccc3[nH]2)ccc1O [5f]	human TRPV1 (Homo sapiens)	=	6.25
O=C(Nc1ccc(O)cc1)c1cc2ccccc2[nH]1 [5a]	human TRPV1 (Homo sapiens)	=	5.64
Cn1c(C(=O)Nc2ccc(F)cc2)cc2ccccc21 [6b]	human TRPV1 (Homo sapiens)	=	5.46
Cn1c(C(=O)NCc2ccc(O)cc2)cc2ccccc21 [6d]	human TRPV1 (Homo sapiens)	=	5.96
Cn1c(C(=O)NCCc2ccc(O)c(O)c2)cc2ccccc21 [6j]	human TRPV1 (Homo sapiens)	=	6.74
Cn1c(C(=O)Nc2ccc(O)cc2)cc2ccccc21 [6a]	human TRPV1 (Homo sapiens)	=	6.47
O=C(NCCc1ccc(O)c(O)c1)c1cc2ccccc2[nH]1 [5i]	human TRPV1 (Homo sapiens)	=	5.09
O=C(NCc1ccc(O)cc1)c1cc2ccccc2[nH]1 [5c]	human TRPV1 (Homo sapiens)	<	5.00
